System: SH-SY5Y
Test: Neuroprotective activity against H2O2-induced neurotoxicity in human SH-SY5Y cells assessed as cell survival at 1 uM incubated for 2 hrs before H2O2 challenge measured after 24 hrs by MTT assay
Format: functional
Settings: Homo sapiens, SH-SY5Y; read-out: Activity
Measured viability at 1 µM by item
Number in %, nothing else.

CCCC(=O)O[C@H]1c2cc3c(c(OC)c2-c2c(cc(OC)c(OC)c2OC)[C@H](OC(C)=O)[C@@H](C)[C@H]1C)OCO3; 61.1

Value lookup for viability at 1 µM; key = COc1cc2c(c(OC)c1OC)-c1c(cc3c(c1OC)OCO3)[C@H](OC(C)=O)[C@H](C)[C@H](C)C2 (stereo in doubt; 1)
58.9

Do the same for COc1cc2c(c(OC)c1OC)-c1c(cc3c(c1OC)OCO3)[C@H](OC(C)=O)[C@H](C)[C@H](C)[C@H]2OC(C)=O please
90

* * *

Listing: viability at 1 µM of selected compounds
Tested on: SH-SY5Y
Assay: Neuroprotective activity against H2O2-induced neurotoxicity in human SH-SY5Y cells assessed as cell survival at 1 uM incubated for 2 hrs before H2O2 challenge measured after 24 hrs by MTT assay
Format: functional
Details: Homo sapiens, SH-SY5Y; read-out: Activity
Please reply with the bare figure in % and do not write the unit itself.

Here's what some known entries look like.
COc1cc2c(c(OC)c1OC)-c1c(cc3c(c1OC)OCO3)[C@H](OC(=O)C(C)C)[C@H](C)[C@H](C)[C@H]2OC(C)=O [ANANOLIGNAN H]; 64.1
C/C=C(\C)C(=O)O[C@H]1c2cc(OC)c(OC)c(OC)c2-c2c(cc3c(c2OC)OCO3)[C@H](O)[C@H](C)[C@@H]1C [ANANOSIN A]; 66.4

Consider the compound C/C=C(\C)C(=O)O[C@H]1c2cc(OC)c(OC)c(OC)c2-c2c(cc3c(c2OC)OCO3)[C@H](OC(C)=O)[C@H](C)[C@@H]1C [ANANOLIGNAN L] and give its measured viability at 1 µM.
79.2

* * *

System: SH-SY5Y
Assay: Neuroprotective activity against H2O2-induced neurotoxicity in human SH-SY5Y cells assessed as cell survival at 1 uM incubated for 2 hrs before H2O2 challenge measured after 24 hrs by MTT assay
Assay type: functional
Settings: Homo sapiens, SH-SY5Y; read-out: Activity
observable: viability at 1 µM (%)
Kindly answer with a numeric value in %, unit omitted.

Known viability at 1 µM results, listed for orientation:
C/C=C(/C)C(=O)O[C@H]1c2cc(OC)c(OC)c(OC)c2-c2c(cc3c(c2OC)OCO3)[C@H](OC(C)=O)[C@H](C)[C@@H]1C; 45.7
COc1cc2c(c(OC)c1OC)-c1c(cc3c(c1OC)OCO3)[C@@H](OC(C)=O)[C@@H](C)[C@H](C)C2=O; 59.7
COc1cc2c(c(OC)c1OC)-c1c(cc3c(c1OC)OCO3)[C@H](OC(C)=O)[C@H](C)[C@H](C)[C@@H]2O; 64.3

Return reported viability at 1 µM; argument: C/C=C(/C)C(=O)O[C@H]1c2cc(OC)c(OC)c(OC)c2-c2c(cc3c(c2OC)OCO3)[C@H](OC(=O)CCC)[C@H](C)[C@@H]1C
75

Then COc1cc2c(c(OC)c1OC)-c1c(cc3c(c1OC)OCO3)[C@H](O)[C@@H](C)[C@@H](C)C2 ?
41.7

Queued: CCC(=O)O[C@H]1c2cc3c(c(OC)c2-c2c(cc(OC)c(OC)c2OC)[C@H](OC(C)=O)[C@@H](C)[C@H]1C)OCO3
57.7
